Every entry's value here was drawn from PubChem BioAssay (NCI).

List of TGI values.
system: SN12C renal; assay: NCI tumour cell line growth inhibition, 48 h

| molecule | subjectOfTest | TGI |
| --- | --- | --- |
| COc1ccc2c(c1)nc1n2C(c2ccc(F)cc2)SC1 (centres undefined) | SN12C renal | > 100 µM |
| Cc1nnc(N=Nc2c(O)[nH]c3ccccc23)n1N | SN12C renal | > 100 µM |
| COC(=O)C(C(=O)C(=O)NC1Nc2ccc(C)cc2S1)c1nc2ccc(Cl)cc2[nH]c1=O (centres undefined) | SN12C renal | > 100 µM |
| C[N+](C)=c1nc(N2CCOCC2)ss1 | SN12C renal | > 100 µM |
